pIC50 overview
- measured-target: Muscarinic acetylcholine receptor M1 (Homo sapiens, UniProt P11229)
- Sequence (P11229 whole entry): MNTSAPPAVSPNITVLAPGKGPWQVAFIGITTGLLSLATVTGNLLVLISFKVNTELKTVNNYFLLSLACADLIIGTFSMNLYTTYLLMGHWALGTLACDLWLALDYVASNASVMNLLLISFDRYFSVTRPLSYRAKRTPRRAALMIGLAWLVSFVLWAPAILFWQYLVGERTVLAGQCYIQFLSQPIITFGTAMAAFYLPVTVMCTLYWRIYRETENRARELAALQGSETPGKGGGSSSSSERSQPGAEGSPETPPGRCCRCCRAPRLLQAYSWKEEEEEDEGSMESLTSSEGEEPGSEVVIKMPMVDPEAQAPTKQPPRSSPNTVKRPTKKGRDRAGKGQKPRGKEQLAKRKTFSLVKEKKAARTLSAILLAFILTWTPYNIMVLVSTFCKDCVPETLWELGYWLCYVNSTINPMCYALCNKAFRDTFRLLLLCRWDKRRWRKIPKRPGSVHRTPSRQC
- method-description: Antagonist activity at human recombinant muscarinic M1 receptor expressed in CHO cells assessed as inhibition of acetylcholine-induced intracellular Ca2+ mobilization by FLIPR assay
// pIC50: -log10(molar conc.)

molecule	measured-target	pIC50
CCOC(=O)c1ccc(NC(=O)N[C@@H](Cc2ccc(N)cc2)C(=O)N[C@H]2CC[N+](C)(Cc3ccc4c(c3)OCO4)C2)cc1 (some centres undefined)	Muscarinic acetylcholine receptor M1 (Homo sapiens, UniProt P11229)	5.90
CCOC(=O)c1ccc(NC(=O)N[C@@H](Cc2ccc(C(F)(F)F)cc2)C(=O)N[C@H]2CC[N+](C)(Cc3ccc4c(c3)OCO4)C2)cc1 (some centres undefined)	Muscarinic acetylcholine receptor M1 (Homo sapiens, UniProt P11229)	7.30
CCOC(=O)c1ccc(NC(=O)N[C@@H](Cc2ccccc2Cl)C(=O)N[C@H]2CC[N+](C)(Cc3ccc4c(c3)OCO4)C2)cc1 (some centres undefined)	Muscarinic acetylcholine receptor M1 (Homo sapiens, UniProt P11229)	5.70

Below: the item to evaluate.
-- ask // pIC50 lookup, key: CCOC(=O)c1ccc(NC(=O)N[C@@H](Cc2ccc(O)cc2)C(=O)NC2CCN(Cc3cccc(OC)c3)C2)cc1 (some centres undefined)
-- reply 5.60

====

Kb overview
- measured-target: UniProtKB P11229
- method-description: Antagonist activity at human recombinant muscarinic M1 receptor expressed in CHO cells assessed as inhibition of acetylcholine-induced intracellular Ca2+ mobilization by FLIPR assay
- Type: functional, cell-based
- test-parameters: read-out: pA2 (converted)

# example entries with known answers
compound	measured-target	Kb
CC(C)OC(=O)c1ccc(NC(=O)N[C@@H](Cc2ccc(O)cc2)C(=O)N[C@H]2CCC[N+](CC3CC3)(CC3CC3)C2)cc1	UniProtKB P11229	0.0398 µM
CC(C)NC(=O)c1ccc(NC(=O)N[C@@H](Cc2ccc(O)cc2)C(=O)N[C@H]2CCC[N+](C)(Cc3ccc(O)cc3)C2)cc1 (some centres undefined)	UniProtKB P11229	0.0794 µM
C=CC[N+]1(Cc2cccc(O)c2)CCC[C@H](NC(=O)[C@H](Cc2ccc(O)cc2)NC(=O)Nc2ccc(C(=O)OC(C)C)cc2)C1 (some centres undefined)	UniProtKB P11229	0.0158 µM

Below: the item to evaluate.
-- ask // Kb lookup, key: CC(C)OC(=O)c1ccc(NC(=O)N[C@@H](Cc2ccc(O)cc2)C(=O)N[C@H]2CCC[N+]3(CCCCCC3)C2)cc1
-- reply 0.0794 µM

====

pIC50 overview
- measured-target: Muscarinic acetylcholine receptor M2 (Homo sapiens)
- Sequence (P08172 whole entry): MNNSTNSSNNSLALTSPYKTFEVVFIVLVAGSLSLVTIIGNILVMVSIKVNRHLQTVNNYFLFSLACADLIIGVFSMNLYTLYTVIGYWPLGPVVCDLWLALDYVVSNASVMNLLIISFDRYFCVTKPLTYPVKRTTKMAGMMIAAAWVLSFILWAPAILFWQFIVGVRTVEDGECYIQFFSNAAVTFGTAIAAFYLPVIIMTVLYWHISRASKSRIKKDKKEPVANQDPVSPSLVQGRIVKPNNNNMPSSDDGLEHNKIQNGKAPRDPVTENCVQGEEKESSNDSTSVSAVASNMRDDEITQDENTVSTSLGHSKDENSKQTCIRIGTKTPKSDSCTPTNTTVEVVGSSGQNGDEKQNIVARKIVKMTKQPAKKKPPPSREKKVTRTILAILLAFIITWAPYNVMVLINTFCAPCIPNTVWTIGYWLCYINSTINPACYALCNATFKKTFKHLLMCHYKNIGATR
- method-description: Antagonist activity at human recombinant muscarinic M2 receptor expressed in CHO cells coexpressing chimeric G protein Gqi5 assessed as inhibition of acetylcholine-induced intracellular Ca2+ mobilization by FLIPR assay
// pIC50: -log10(molar conc.)

compound	pIC50
CCOC(=O)c1ccc(NC(=O)N[C@@H](Cc2ccc(C)cc2)C(=O)N[C@H]2CC[N+](C)(Cc3ccc4c(c3)OCO4)C2)cc1 (some centres undefined)	8.00
CCOC(=O)c1ccc(NC(=O)N[C@@H](Cc2ccc(O)cc2)C(=O)N[C@H]2CC[N+](C)(Cc3ccc4c(c3)OCO4)C2)cc1 (some centres undefined)	7.40

Below: the item to evaluate.
-- ask // pIC50 lookup, key: CCOC(=O)c1ccc(NC(=O)N[C@@H](Cc2ccc(O)cc2)C(=O)NC2CCN(Cc3cccc(C(F)(F)F)c3)C2)cc1 (some centres undefined)
-- reply 6.20
